Quick reference: Delta MST of the listed items.
Tested on: Mus musculus
METHOD: Antimalarial activity was determined in Plasmodium berghei infected mice (Mus musculus) at 160 mg/kg dose
Assay type: functional
Enter the number alone.

See these solved cases before continuing.
> print(dat)
                                   compound  reported.value
1  COc1cc(NC(C)CCCN)c2ncccc2c1Oc1ccc(F)cc1 (configuration not stated)             7.5
2  COc1cc(NC(C)CCCN)c2nccc(C)c2c1 (configuration not stated)               9
3  COc1cc(NC(C)CCCN)c2ncccc2c1Oc1ccc(Cl)c(Cl)c1 (configuration not stated)               6
4  COc1cc(NC(C)CCCN)c2ncccc2c1Oc1ccc(OC(F)(F)F)cc1 (configuration not stated)             0.5
5  COc1cc(NC(C)CCCN)c2ncccc2c1Oc1ccc(Cl)cc1Cl (configuration not stated)             2.2

For this compound ( COc1cc(NC(C)CCCN)c2ncc(C)cc2c1Oc1ccc(F)c(C(F)(F)F)c1 (configuration not stated) ), measured Delta MST is 5

Quick note, Delta MST for COc1cc(NC(C)CCCN)c2ncccc2c1Oc1cccc(C(F)(F)F)c1 (configuration not stated) landed at 7.1

The compound listed as COc1cc(NC(C)CCCN)c2ncccc2c1Oc1ccc(F)c(C(F)(F)F)c1 (configuration not stated) shows Delta MST equal to 4.6

Per the record, COc1cc(NC(C)CCCN)c2ncccc2c1Oc1ccccc1 (configuration not stated) has Delta MST of 5.1

Delta MST in this record for COc1ccc(Oc2c(OC)cc(NC(C)CCCN)c3ncccc23)cc1 (configuration not stated) : 6

Per the record, COc1cc(NC(C)CCCN)c2ncccc2c1Oc1cc(C(F)(F)F)cc(C(F)(F)F)c1 (configuration not stated) has Delta MST of 1.5

The compound listed as COc1cc(NC(C)CCCN)c2ncccc2c1Oc1ccc(Cl)cc1 (configuration not stated) has a reported Delta MST of 7.1

###

A collection of compounds and their measured Toxic deaths
Test system: Mus musculus
METHOD: Number of toxic death was determined in Plasmodium berghei infected mice (Mus musculus) at 640 mg/kg dose
Type: ADME, organism-based
Set-up: dose 640 mg/kg
SETTINGS: in vivo
Answer with the value's number alone.

Some solved entries appear below for comparison.
> print(dat)
                                   compound  recorded.metric  reported.value
1  COc1cc(NC(C)CCCN)c2ncccc2c1 (stereo not given) [PRIMAQUINE]     Toxic deaths               5
2  COc1cc(NC(C)CCCN)c2nccc(C)c2c1 (stereo not given)     Toxic deaths               1
3  COc1cc(NC(C)CCCN)c2ncccc2c1Oc1ccc(OC(F)(F)F)cc1 (stereo not given)     Toxic deaths               1
4  COc1cc(NC(C)CCCN)c2nccc(C)c2c1Oc1ccccc1 (stereo not given)     Toxic deaths               2

Next item in the queue.
Value of measured Toxic deaths for the entry COc1cc(NC(C)CCCN)c2ncc(C)cc2c1Oc1ccc(F)c(C(F)(F)F)c1 (stereo not given) : 1

###

Test system: Mus musculus
METHOD: Antimalarial activity was determined in Plasmodium berghei infected mice (Mus musculus) at 320 mg/kg dose
Type: functional
Parameters: unit not given beside the values
Classification field. Basis: Delta MST. Definitions: bin A = under 6, bin B = from 6 up to 9, bin C = 9 and over

> print(dat)
                                   compound  discrete.label
1  COc1cc(NC(C)CCCN)c2ncccc2c1Oc1ccc(OC(F)(F)F)cc1 (stereo unspecified)           bin A

Please let me know in which category the item COc1cc(NC(C)CCCN)c2ncccc2c1Oc1cc(C(F)(F)F)cc(C(F)(F)F)c1 (stereo unspecified) belongs.
bin B

Which bin, given its Delta MST, does COc1ccc(Oc2c(OC)cc(NC(C)CCCN)c3ncccc23)cc1 (stereo unspecified) occupy?
bin B
